Origin of values: PubChem BioAssay (NCATS)

# Test summary: qHTS Screen of the MIPE 4.0 Collection Against Ewings Sarcoma (EW8) (AID 1259255); further: nearly all actives have a fitted effect of over 35% in size; further: potency means the concentration at half of the fitted maximal effect;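 on viability: 100% = DMSO-treated cells and 0% = medium-only wells without cells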
# Condition description: EW8 Ewing sarcoma viability, CellTiter-Glo, 48 h; series mostly up to 45.8 µM
Inconclusive results are not listed. Calls of active or inactive are those of the source. The call rests on the fitted dose curve; in most records, active means well fitted inhibition curve with a large enough effect; inconclusive means small, poorly fitted or top-dose-only effect; inactive means no such curve, though single readings can be large or run the other way.
Measurement type: Potency

NCC1CCC(C(=O)O)CC1 (configuration not stated) ... inactive
CC(C)(OCc1nn(Cc2ccccc2)c2ccccc12)C(=O)O ... inactive
O=C(C=Cc1ccc(O)cc1)c1ccc(O)cc1O ... 20.9 µM (active)
N#Cc1c(N(CC(=O)O)CC(=O)O)sc(C(=O)O)c1CC(=O)O ... inactive
COc1cc([C@@H]2c3cc4c(cc3[C@@H](O[C@@H]3O[C@@H]5CO[C@@H](C)O[C@@H]5[C@H](O)[C@@H]3O)[C@H]3COC(=O)[C@H]23)OCO4)cc(OC)c1O ... 0.148 µM (active)
CC(C)c1onc(-c2c(Cl)cccc2Cl)c1COc1ccc(C=Cc2cccc(C(=O)O)c2)c(Cl)c1 ... inactive

API: the following record is the query input.
INPUT: Param item = O[C@@H](COc1cccc2ncccc12)CN1CCN(C2c3ccccc3[C@@H]3[C@H](c4ccccc42)C3(F)F)CC1 (some centres not stated) ; retrieve measured Potency.
OUTPUT: 23.5 µM (active)

* * *

# Test summary: qHTS of pediatric cancer cell lines to identify multiple opportunities for drug repurposing: Confirmatory screen for SK-N-MC cells (AID 1347111);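 further: cells exposed to compound for 48 h before the readout; nearly all actives have a fitted effect of over 70% in size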
# Condition description: SK-N-MC cell viability; series mostly up to 45.9 µM
Records with an inconclusive call do not appear. Activity calls are given as the source filed them. Calls follow the shape of the dose curve; as a rule, active = well fitted cell-killing curve with a large enough effect; inconclusive = small, poorly fitted or top-dose-only effect; inactive = no such curve, though single readings can be large or run the other way.
Classes to choose from: class 1 (active), class 0 (inactive)

CCC(=O)OCC(=O)[C@@]1(OC(=O)CC)[C@@H](C)C[C@@H]2[C@H]3CCC4=CC(=O)C=C[C@]4(C)[C@@]3(F)[C@@H](O)C[C@@]21C ... class 0

INPUT: What classification did CC(C)n1c(C=C[C@H](O)C[C@H](O)CC(=O)O)c(-c2ccc(F)cc2)c2ccccc21 end up with in this test?
OUTPUT: class 1

INPUT: What classification did O=c1[nH]nc(OCCCc2ccc(Cl)cc2)c(NCc2cccnc2)c1Br end up with in this test?
OUTPUT: class 1

* * *

# Test summary: Quantitative High-Throughput drug screen in 47 multiple myeloma cell lines against the NCATS MIPE library collection: OPM1_PLB cell viability assay (AID 1918989); further: nearly all actives have a fitted effect of over 40% in size
# Condition description: CellTiter-Glo, 48 h; series mostly up to 45.8 µM
# Description: PI: Beverly A. Mock Ph.D. Laboratory of Cancer Biology and Genetics, Center for Cancer Research, National Cancer Institute, National Institute of Health, Bethesda, Maryland […] 5; Detector; 425V; Luminescence; Viewlux PerkinElmer. […] 1. […] Briefly, the corresponding myeloma cell lines were screened in 1,536-well plates with 500 cells, 5-uL per well for inhibition of cell viability (assessed by measuring ATP levels with CellTiterGlo). […]
Records with an inconclusive call do not appear. Activity calls are given as the source filed them. Calls follow the shape of the dose curve; as a rule, active = well fitted cell-killing curve with a large enough effect; inconclusive = small, poorly fitted or top-dose-only effect, or effect the other way; inactive = no such curve, though single readings can be large or run the other way.
Classes to choose from: active, inactive

O=c1[nH]nc(OCCCc2ccc(Cl)cc2)c(NCc2cccnc2)c1Br ... active

INPUT: What classification did COc1ccc2cc1Oc1ccc(cc1)C[C@H]1c3cc(c(OC)cc3CCN1C)Oc1c(OC)c(OC)cc3c1[C@H](C2)N(C)CC3 end up with in this test?
OUTPUT: active

INPUT: What classification did O=C(c1ccc(C=Cc2n[nH]c3ccccc23)cc1)N1CCNCC1 end up with in this test?
OUTPUT: active

INPUT: What classification did CC(NCCc1ccc(O)cc1)C(O)c1ccc(O)cc1 (centres undefined) end up with in this test?
OUTPUT: inactive

* * *

# Test summary: Quantitative High-Throughput drug screen in 47 multiple myeloma cell lines against the NCATS MIPE library collection: XG6_PLB cell viability assay (AID 1919865); further: nearly all actives have a fitted effect of over 40% in size
# Condition description: XG6 myeloma viability, CellTiter-Glo ATP luminescence, 48 h; series mostly up to 45.8 µM
Inconclusive results are not listed. Active and inactive are the calls of the source. Calls come from the whole dose curve; as a rule, active = well fitted cell-killing curve with a large enough effect; inconclusive = small, poorly fitted or top-dose-only effect, or effect the other way; inactive = no such curve, though single readings can be large or run the other way.
Classes to choose from: yes for active, no for inactive

INPUT: What classification did NC[C@H]1O[C@H](O[C@@H]2[C@@H](O)[C@@H](O[C@H]3O[C@H](CO)[C@@H](O)[C@H](N)[C@@H]3O)[C@H](N)C[C@@H]2N)[C@H](O)[C@@H](O)[C@H]1O end up with in this test?
OUTPUT: no

INPUT: What classification did NC(=O)c1ccc(N(C(N)=O)c2c(F)cccc2F)nc1-c1ccc(F)cc1F end up with in this test?
OUTPUT: yes

INPUT: What classification did CC(C)(F)C[C@H](N[C@@H](c1ccc(-c2ccc(S(C)(=O)=O)cc2)cc1)C(F)(F)F)C(=O)NC1(C#N)CC1 end up with in this test?
OUTPUT: no

INPUT: What classification did CSc1cccc(Nc2ncc3cc(-c4c(Cl)cccc4Cl)c(=O)n(C)c3n2)c1 end up with in this test?
OUTPUT: yes

* * *

# Test summary: qHTS profiling of the MIPE4 collection as inhibitors of Plasmodium falciparum (HB3) proliferation (AID 743347);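 further: plate controls were DMSO vehicle wells for no effect and artemisinin wells for full effect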
# Condition description: P. falciparum HB3 in erythrocytes, SYBR Green DNA, 72 h; at 28.5 µM (top of the series) unless noted
I'd be grateful if you could share measured growth, % of control for these entries.

COc1cc2c(cc1OC)CC(=O)N(CCCN(C)C[C@H]1Cc3cc(OC)c(OC)cc31)CC2 ... 79.8%
Cc1cccc(-c2[nH]c(C(C)(C)C)nc2-c2ccc3c(c2)OCO3)n1 ... 8.33%
CO[C@H]1/C=C\O[C@@]2(C)Oc3c(C)c(O)c4c(O)c(c(C=NN5CCN(C6CCCC6)CC5)c(O)c4c3C2=O)NC(=O)C(C)=CC=C[C@H](C)[C@H](O)[C@@H](C)[C@@H](O)[C@@H](C)[C@H](OC(C)=O)[C@H]1C ... 2.45%
O=C(Nc1cccc(C(F)(F)F)c1)Nc1cc(S(=O)(=O)NC2CC2)ccc1-c1ccsc1 ... 78.9%
COc1ccc(-c2cc3nccn3c(Nc3ncccc3C(N)=O)n2)cc1OC ... 2.93%
Nc1ncnc2c1c(-c1cccc(OCc3ccccc3)c1)cn2C1CC(CN2CCC2)C1 (configuration not stated) ... 12.8%

Batch of 7 compounds: report growth, % of control for each.
1. CC(C)(C)c1[nH]cnc1C=c1[nH]c(=O)c(=Cc2ccccc2)[nH]c1=O
2. Cc1ccc(S(=O)(=O)OCC(=O)Nc2ccc(C(=O)O)c(O)c2)cc1
3. CC(NCCc1ccc(O)cc1)C(O)c1ccc(O)cc1 (configuration not stated)
4. CN(C)CCN(Cc1ccc(Cl)cc1)c1ccccn1
5. OC[C@H]1O[C@@H](Oc2ccc(O)cc2)[C@H](O)[C@@H](O)[C@H]1O
6. C[C@@H]1O[C@@H](O[C@H]2CC[C@@]3(C)[C@H](CC[C@@H]4[C@H]3C[C@@H](O)[C@]3(C)[C@@H](C5=CC(=O)OC5)CC[C@]43O)C2)C[C@H](O)[C@@H]1O[C@H]1C[C@H](O)[C@H](O[C@H]2C[C@H](O)[C@@H](O)[C@@H](C)O2)[C@H](C)O1 (stereo in doubt)
7. Fc1ccc(C(c2ccc(F)cc2)N2CCN(CC=Cc3ccccc3)CC2)cc1

OUTPUT:
1: 7.41% [at 57.5 µM]; 2: 75.5%; 3: 96.6%; 4: 53%; 5: 93.4%; 6: 57% [at 57.5 µM]; 7: 5.16%

Batch of 3 compounds: report growth, % of control for each.
1. C[C@]12CCC3=C4CCC(=O)C=C4CC[C@@H]3[C@H]1CC[C@@]2(O)CC#N
2. C[C@@H](N)c1ccc(C(=O)Nc2ccnc3[nH]ccc23)cc1
3. CCCCCCOC(=O)N=C(N)c1ccc(NCc2nc3cc(C(=O)N(CCC(=O)OCC)c4ccccn4)ccc3n2C)cc1

OUTPUT:
93%
67.7%
7.43%

INPUT: Param item = CSc1cccc(Nc2ncc3cc(-c4c(Cl)cccc4Cl)c(=O)n(C)c3n2)c1 ; retrieve measured growth, % of control.
OUTPUT: 9.92%

* * *

# System: Es-2
# Test summary: Primary qHTS to identify gynecologic anti-cancer compounds using libraries of approved drugs and bioactive compounds (AID 1345084); further: on the % scale 0 is the no-effect control and ±100 the full control effect; nearly all actives have a fitted effect of over 55% in size
# Condition description: Gynecologic cancer cell panel viability, ATPlite luminescence, 48 h; series mostly up to 57.5 µM
Inconclusive results are not listed. Activity calls are given as the source filed them. Calls come from the whole dose curve; as a rule, active = well fitted cell-killing curve with a large enough effect; inconclusive = small, poorly fitted or top-dose-only effect, or effect the other way; inactive = flat fitted curve, though single readings scatter.
Classes to choose from: YES = active, NO = inactive

INPUT: What classification did CNc1nc(Nc2ccc(C(=O)N3CCOCC3)cc2OC)ncc1Cl end up with in this test?
OUTPUT: NO

INPUT: What classification did CCCCn1c(=O)n(Cc2ccccc2F)c(=O)c2[nH]c(Cc3ccc(NC(C)=O)cc3)nc21 end up with in this test?
OUTPUT: NO

INPUT: What classification did NC(=O)c1noc([C@H](CCCC2CCCCC2)CC(=O)NO)n1 end up with in this test?
OUTPUT: NO
